target: T1, human PD-L1 on cells (human, UniProt Q9NZQ7 19-290); assay: flow cytometry on MDA-MB-231 cells, pH 6
T1 construct: Endogenous on MDA-MB-231 cells or transfected into HEK293FF cells (Sino Biological plasmid); the assay field says which; also called native PD-L1 on MDA-MB-231 cells; PD-L1 expressing MDA-MB-231 cells
T1 sequence (Q9NZQ7 19-290 limits assumed): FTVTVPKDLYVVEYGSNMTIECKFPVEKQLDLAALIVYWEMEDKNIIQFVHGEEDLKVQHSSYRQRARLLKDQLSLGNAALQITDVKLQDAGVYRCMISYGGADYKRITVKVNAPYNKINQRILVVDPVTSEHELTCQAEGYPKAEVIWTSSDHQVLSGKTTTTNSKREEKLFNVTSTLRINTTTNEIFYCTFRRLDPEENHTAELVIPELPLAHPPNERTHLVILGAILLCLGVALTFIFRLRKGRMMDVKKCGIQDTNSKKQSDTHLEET
Listed binders paired with reported EC50
Enter your answer as a number in nM; do not include the unit.

Take a look at these entries with their results.
BINDER	EC50, nM
8G08 mAb (antibody, V domains shown, Formatted into an IgG1; also called 8G08 IgG1) VH: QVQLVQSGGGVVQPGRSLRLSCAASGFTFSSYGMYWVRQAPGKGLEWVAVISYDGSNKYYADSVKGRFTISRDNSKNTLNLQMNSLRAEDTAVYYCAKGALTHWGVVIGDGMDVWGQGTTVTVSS VL: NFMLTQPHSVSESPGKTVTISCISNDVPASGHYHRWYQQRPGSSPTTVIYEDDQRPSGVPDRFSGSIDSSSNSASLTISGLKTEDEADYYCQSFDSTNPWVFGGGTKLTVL	0.08
8A04 mAb (antibody, V domains shown, Formatted into an IgG1; also called 8A04 IgG1) VH: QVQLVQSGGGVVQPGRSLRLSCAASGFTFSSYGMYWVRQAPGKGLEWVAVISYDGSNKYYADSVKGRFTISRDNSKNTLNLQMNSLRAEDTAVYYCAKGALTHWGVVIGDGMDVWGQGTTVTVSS VL: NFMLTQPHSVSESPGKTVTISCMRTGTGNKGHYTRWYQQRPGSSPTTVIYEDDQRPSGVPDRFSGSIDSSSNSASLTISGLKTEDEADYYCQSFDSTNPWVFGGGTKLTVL	0.09

As a next step, examine the binder that follows.
INPUT: Let me know recorded EC50 for 8D06 mAb (antibody, V domains shown, Formatted into an IgG1; also called 8D06 IgG1) VH: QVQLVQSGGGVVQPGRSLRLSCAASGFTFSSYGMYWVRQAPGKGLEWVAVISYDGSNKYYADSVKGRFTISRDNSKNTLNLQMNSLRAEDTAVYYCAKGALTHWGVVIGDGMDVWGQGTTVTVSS VL: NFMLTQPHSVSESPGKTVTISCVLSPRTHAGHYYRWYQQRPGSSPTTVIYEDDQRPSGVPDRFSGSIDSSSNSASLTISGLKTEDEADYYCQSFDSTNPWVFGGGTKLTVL , thanks.
OUTPUT: 0.11
